# ASSAY OVERVIEW: Bleaching action in washing agents (LINITEST, DY increase)
# SETUP CONDITIONS: 1:1 Mn complex with ligand, 50 μmol/l; H2O2 8.6 mmol/l; ECE washing agent 7.5 g/l; 30 minutes at 40° C.; versus no catalyst
We begin with a simple list: items and their reported DY increase.
READOUT NAME: DY increase

OCCN(CCO)c1cc(-c2ccccn2)nc(-c2ccccn2)c1 [Ligand L7] ... 5.6
NNc1cc(-c2ccccn2)nc(-c2ccccn2)c1 [Ligand L4, [2,2′;6′,2″]Terpyridin-4′-yl-hydrazine] ... 5.0
O=c1cc(-c2ccccn2)[nH]c(-c2ccccn2)c1 [Ligand L1, 1′H-[2,2′;6′,2″]Terpyridin-4′-one] ... 5.0
